B1: library; numbered along this chain (parent)
chain: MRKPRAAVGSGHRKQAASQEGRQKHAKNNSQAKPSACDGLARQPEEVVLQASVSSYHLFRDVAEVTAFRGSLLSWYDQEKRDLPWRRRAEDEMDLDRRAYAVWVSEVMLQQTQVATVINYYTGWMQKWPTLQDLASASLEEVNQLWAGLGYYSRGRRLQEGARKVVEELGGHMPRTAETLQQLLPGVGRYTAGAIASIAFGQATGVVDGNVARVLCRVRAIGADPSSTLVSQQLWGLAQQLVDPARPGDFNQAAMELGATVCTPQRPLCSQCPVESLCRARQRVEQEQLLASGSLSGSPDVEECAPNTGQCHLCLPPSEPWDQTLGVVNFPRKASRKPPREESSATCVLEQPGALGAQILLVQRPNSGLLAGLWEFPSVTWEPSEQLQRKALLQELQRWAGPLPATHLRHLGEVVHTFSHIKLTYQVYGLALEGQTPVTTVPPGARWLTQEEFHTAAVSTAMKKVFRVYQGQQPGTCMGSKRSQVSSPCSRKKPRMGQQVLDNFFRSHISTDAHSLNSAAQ

variants of: B1; experiment: 8OG:A repair function score (normalized; synonymous = 0, nonsense = -1) (normalized log-likelihood score); higher = more repair activity (WT-like); details: with 8OG:A DNA repair reporter (GFP) in HEK-293 MUTYH KO cells;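 further: cells sorted at 72 h after reporter transfection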
MEASURE_NAME: 8OG:A repair function score
Form rule: numeric answer, no unit written next to it.

Prompt: Please give measured 8OG:A repair function score of the following entry: `Q252C`
Response: -0.576

Prompt: Give 8OG:A repair function score for `C272A`
Response: -1.16

Prompt: Answer with the recorded 8OG:A repair function score of `A245D` only.
Response: 0.223

Prompt: Find the measured 8OG:A repair function score of `V327P` and report it.
Response: -0.051

Prompt: For the variant `Q240C` , give its measured 8OG:A repair function score value.
Response: -1.01

Prompt: Give reported 8OG:A repair function score value for `A280M`
Response: -0.582

Prompt: Give the measured 8OG:A repair function score for `R482K`
Response: 0.021

Prompt: State, in one line, measured 8OG:A repair function score of `L109F`
Response: -0.916

Prompt: Given `N210A` , respond with its 8OG:A repair function score.
Response: -0.876

Prompt: Recall and state the measured 8OG:A repair function score for `F330G` .
Response: -0.999

Prompt: Retrieve 8OG:A repair function score measured for `G471H` and print it.
Response: 0.00339

Prompt: Give recorded 8OG:A repair function score. `A99Q`
Response: -2.46

Prompt: Supply reported 8OG:A repair function score belonging to this variant: `P299N`
Response: -0.099

Prompt: In one line, give reported 8OG:A repair function score of the entry `V114C` .
Response: -0.178

Prompt: Please supply the value of reported 8OG:A repair function score for the item `S518I`
Response: -0.00126

Prompt: In one line, give reported 8OG:A repair function score of the entry `V114D` .
Response: -0.453

Prompt: Assign 8OG:A repair function score to the following record: `P84D`
Response: -0.332

Prompt: Return value of 8OG:A repair function score for input `P442T` , no commentary.
Response: -0.0315

Prompt: Report measured 8OG:A repair function score; entry is `S270R`
Response: -0.00848

Prompt: Consider the variant `Q394Y` and give its recorded 8OG:A repair function score.
Response: -0.129

Prompt: Give the value of 8OG:A repair function score reported for the following: `S54K`
Response: -0.0583

Prompt: Specify 8OG:A repair function score for `G150K` and stop.
Response: -1.27

Prompt: Please indicate 8OG:A repair function score recorded for `A254D`
Response: -0.87

Prompt: Note 8OG:A repair function score for the variant shown: `W128Q`
Response: -0.844

Prompt: State, in one line, measured 8OG:A repair function score of `L295R`
Response: -0.0249

Prompt: For `G401P` , write its 8OG:A repair function score.
Response: 0.0452

Prompt: Query 8OG:A repair function score for `G356A`
Response: -0.11

Prompt: Kindly indicate its recorded 8OG:A repair function score. Item: `T116W`
Response: -0.0903

Prompt: Specify reported 8OG:A repair function score for the variant shown: `D208H`
Response: -1.01

Prompt: Output measured 8OG:A repair function score for this item: `Q159M`
Response: 0.0724

Prompt: Output measured 8OG:A repair function score for this item: `D322A`
Response: -0.0859

Prompt: // Input: `A63I` . Output its 8OG:A repair function score only.
Response: -0.0351

Prompt: Please report 8OG:A repair function score for the following variant: `Q111D`
Response: -0.941

Prompt: Return reported 8OG:A repair function score. Input variant: `Y56S`
Response: -0.0461

Prompt: Determine its reported 8OG:A repair function score: `G368N`
Response: -0.146

Prompt: Return value of 8OG:A repair function score for input `W399R` , no commentary.
Response: -0.289

Prompt: Return 8OG:A repair function score (reported value) for this variant: `A513G`
Response: 0.0049

Prompt: Indicate the recorded 8OG:A repair function score value for this variant: `V230R`
Response: -0.524

Prompt: State, in one line, measured 8OG:A repair function score of `Q288Y`
Response: -0.0255

Prompt: Identify the reported 8OG:A repair function score for the following entry. `S344E`
Response: -0.0813

Prompt: Report 8OG:A repair function score, nothing else, for this variant: `R398H`
Response: 0.0204

Prompt: Output measured 8OG:A repair function score for this item: `H508N`
Response: -0.00695

Prompt: Please list 8OG:A repair function score recorded for the variant `A6V`
Response: 0.0405

Prompt: Please list 8OG:A repair function score recorded for the variant `L72R`
Response: -1.65

Prompt: Find the measured 8OG:A repair function score of `L139E` and report it.
Response: -0.17

Prompt: Dear colleague, please send me the reported 8OG:A repair function score for `K481G` when you can.
Response: -0.0136
